Measured values drawn from ChEMBL document CHEMBL1156852 for this set.

# maps each entry to its inhibition of growth at 10 µM
# System: NCI-H460
# protocol.description: Growth inhibition of human H460 cells at 10 uM after 24 hrs by propidium iodide assay
# Type: functional
# measurement.context: NCI-H460, 24 h, read-out: GI

compound.string: COc1ccc(/C=C/C(=O)c2ccc(Cl)cc2Cl)c(OC)c1
inhibition of growth at 10 µM (%): 29
--
compound.string: COc1ccc(/C=C/C(=O)c2ccccc2)c(OC)c1
inhibition of growth at 10 µM (%): 92
--
compound.string: COc1ccc(/C=C/C(=O)c2ccc(Cl)cc2)c(OC)c1
inhibition of growth at 10 µM (%): 29
--
compound.string: COc1ccc(C(=O)/C=C/c2ccc(OC)cc2OC)cc1
inhibition of growth at 10 µM (%): 38
--
compound.string: COc1cc(/C=C/C(=O)c2ccc(Cl)cc2)cc(OC)c1OC
inhibition of growth at 10 µM (%): 54
--
compound.string: COc1cc(/C=C/C(=O)c2ccccc2)cc(OC)c1OC
inhibition of growth at 10 µM (%): 15
--
compound.string: COc1ccc(/C=C/C(=O)c2ccc(OC)cc2OC)c(OC)c1
inhibition of growth at 10 µM (%): 38
